// data source = patent EP2687213B1

experiment.summary: Solid form interconversion studies (slurry, XRPD)
Format: physicochemical
condition.label: EQ in acetone:ethanol (1:1) at 25 °C, at least 2 days
quantity.measured: Analysis by XRPD (resulting form)

CCOc1cc(C(CS(C)(=O)=O)N2C(=O)c3cccc(NC(C)=O)c3C2=O)ccc1OC (single isomer, unassigned; (+)) [Form D] | Form B
CCOc1cc(C(CS(C)(=O)=O)N2C(=O)c3cccc(NC(C)=O)c3C2=O)ccc1OC (single isomer, unassigned; (+)) [Form A] | Form B
CCOc1cc(C(CS(C)(=O)=O)N2C(=O)c3cccc(NC(C)=O)c3C2=O)ccc1OC (single isomer, unassigned; (+)) [Form E] | Form B

----------
experiment.summary: Solid form stability studies (XRPD)
Assay type: physicochemical
condition.label: EQ in heptane at 40 °C for 4 weeks
quantity.measured: Analysis by XRPD (resulting form)

CCOc1cc(C(CS(C)(=O)=O)N2C(=O)c3cccc(NC(C)=O)c3C2=O)ccc1OC (single isomer, unassigned; (+)) [Form A] | stable
CCOc1cc(C(CS(C)(=O)=O)N2C(=O)c3cccc(NC(C)=O)c3C2=O)ccc1OC (single isomer, unassigned; (+)) [Form B] | stable
CCOc1cc(C(CS(C)(=O)=O)N2C(=O)c3cccc(NC(C)=O)c3C2=O)ccc1OC (single isomer, unassigned; (+)) [Form C] | stable

----------
experiment.summary: Solid form stability studies (XRPD)
Assay type: physicochemical
condition.label: EQ in ethanol at 40 °C for 4 weeks
Experimental: Stability Studies. The stabilities of Forms A, B, C and D were studied by exposing the solid samples to the stress condition of 40 °C / 75% RH for four weeks. Moreover, the stabilities of Forms A, B, C and D in different solvents were studied by equilibration in different solvents at 40 °C for four weeks. The slurries then were filtered and dried in the air. Solid samples obtained from the stability experiments were analyzed by XRPD and DSC.
quantity.measured: Analysis by XRPD (resulting form)

CCOc1cc(C(CS(C)(=O)=O)N2C(=O)c3cccc(NC(C)=O)c3C2=O)ccc1OC (single isomer, unassigned; (+)) [Form A] | stable
CCOc1cc(C(CS(C)(=O)=O)N2C(=O)c3cccc(NC(C)=O)c3C2=O)ccc1OC (single isomer, unassigned; (+)) [Form B] | stable
CCOc1cc(C(CS(C)(=O)=O)N2C(=O)c3cccc(NC(C)=O)c3C2=O)ccc1OC (single isomer, unassigned; (+)) [Form C] | stable

----------
experiment.summary: Solid form stability studies (XRPD)
Type: physicochemical
condition.label: EQ in water at 40 °C for 4 weeks
quantity.measured: Analysis by XRPD (resulting form)

CCOc1cc(C(CS(C)(=O)=O)N2C(=O)c3cccc(NC(C)=O)c3C2=O)ccc1OC (single isomer, unassigned; (+)) [Form C] | stable
CCOc1cc(C(CS(C)(=O)=O)N2C(=O)c3cccc(NC(C)=O)c3C2=O)ccc1OC (single isomer, unassigned; (+)) [Form A] | stable
CCOc1cc(C(CS(C)(=O)=O)N2C(=O)c3cccc(NC(C)=O)c3C2=O)ccc1OC (single isomer, unassigned; (+)) [Form B] | stable

----------
experiment.summary: Hygroscopicity studies (DVS moisture sorption/desorption)
Format: physicochemical
condition.label: RH increased from about 0% to about 95% RH, about 25 °C
quantity.measured: mass change of the starting mass of the sample

CCOc1cc(C(CS(C)(=O)=O)N2C(=O)c3cccc(NC(C)=O)c3C2=O)ccc1OC (single isomer, unassigned; (+)) [Form G] | about 0.4%
CCOc1cc(C(CS(C)(=O)=O)N2C(=O)c3cccc(NC(C)=O)c3C2=O)ccc1OC (single isomer, unassigned; (+)) [Form A] | about 0.4%

----------
experiment.summary: Solid form stability studies (XRPD)
Format: physicochemical
condition.label: EQ in toluene at 40 °C for 4 weeks
quantity.measured: Analysis by XRPD (resulting form)

CCOc1cc(C(CS(C)(=O)=O)N2C(=O)c3cccc(NC(C)=O)c3C2=O)ccc1OC (single isomer, unassigned; (+)) [Form A] | converts to Form C
CCOc1cc(C(CS(C)(=O)=O)N2C(=O)c3cccc(NC(C)=O)c3C2=O)ccc1OC (single isomer, unassigned; (+)) [Form B] | converts to Form C
CCOc1cc(C(CS(C)(=O)=O)N2C(=O)c3cccc(NC(C)=O)c3C2=O)ccc1OC (single isomer, unassigned; (+)) [Form D] | converts to Form C
